Ref: PubChem BioAssay AID1919004

Below is a list of entries, each paired with its recorded viability, T/C value.
- Tested on: 883617-216-R-J1-PDC complex spheroids, growth, % test/control;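 also: exposure lasted 7 days after dosing on day 3 of spheroid growth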
- Procedure text: Anticancer human tumor 883617-216-R-J1-PDC patient-derived bladder carcinoma cell line growth inhibition [AhR]
- Measurement setup: second compound 0.316 µM; first compound 0.3 µM; active compounds read low
Readout: viability, T/C (%)

[[record]]
compound = "CC(C)CC(NC(=O)C(Cc1ccccc1)NC(=O)c1cnccn1)B(O)O (configuration not stated) + Cc1cncc(-c2nc(NCCc3c[nH]c4ccccc34)c3ncn(C(C)C)c3n2)c1"
readout = "viability, T/C"
result_value = 0.21

[[record]]
compound = "CCc1c2c(nc3ccc(O)cc13)-c1cc3c(c(=O)n1C2)COC(=O)[C@]3(O)CC + CC(CO)NC(=O)c1cc(-c2ccc(Cl)cc2)nn(-c2cnn(C)c2)c1=O"
readout = "viability, T/C"
result_value = 80.7

[[record]]
compound = "Nc1ncn(C2CC(O)C(CO)S2)c(=O)n1 (configuration not stated) + Cc1cncc(-c2nc(NCCc3c[nH]c4ccccc34)c3ncn(C(C)C)c3n2)c1"
readout = "viability, T/C"
result_value = 81.6

[[record]]
compound = "CCc1c2c(nc3ccc(O)cc13)-c1cc3c(c(=O)n1C2)COC(=O)[C@]3(O)CC + Cc1cncc(-c2nc(NCCc3c[nH]c4ccccc34)c3ncn(C(C)C)c3n2)c1"
readout = "viability, T/C"
result_value = 54.3

[[record]]
compound = "CCN(c1cc(-c2ccc(CN3CCOCC3)cc2)cc(C(=O)NCc2c(C)cc(C)[nH]c2=O)c1C)C1CCOCC1 + CC(CO)NC(=O)c1cc(-c2ccc(Cl)cc2)nn(-c2cnn(C)c2)c1=O"
readout = "viability, T/C"
result_value = 88.5

[[record]]
compound = "CC(C)CC(NC(=O)C(Cc1ccccc1)NC(=O)c1cnccn1)B(O)O (configuration not stated) + Cc1ccccc1N=Nc1ccc(NC(=O)c2ccnn2C)c(C)c1"
readout = "viability, T/C"
result_value = 0.11

[[record]]
compound = "O=C(C=Cn1cnc(-c2cc(C(F)(F)F)cc(C(F)(F)F)c2)n1)NNc1cnccn1 + CC(CO)NC(=O)c1cc(-c2ccc(Cl)cc2)nn(-c2cnn(C)c2)c1=O"
readout = "viability, T/C"
result_value = 50.1

[[record]]
compound = "O=C(C=Cn1cnc(-c2cc(C(F)(F)F)cc(C(F)(F)F)c2)n1)NNc1cnccn1 + Cc1cncc(-c2nc(NCCc3c[nH]c4ccccc34)c3ncn(C(C)C)c3n2)c1"
readout = "viability, T/C"
result_value = 58.1

[[record]]
compound = "Nc1ncn(C2CC(O)C(CO)S2)c(=O)n1 (configuration not stated) + Cc1ccccc1N=Nc1ccc(NC(=O)c2ccnn2C)c(C)c1"
readout = "viability, T/C"
result_value = 75.5

[[record]]
compound = "CCN(c1cc(-c2ccc(CN3CCOCC3)cc2)cc(C(=O)NCc2c(C)cc(C)[nH]c2=O)c1C)C1CCOCC1 + Cc1cncc(-c2nc(NCCc3c[nH]c4ccccc34)c3ncn(C(C)C)c3n2)c1"
readout = "viability, T/C"
result_value = 96.2

[[record]]
compound = "O=C(C=Cn1cnc(-c2cc(C(F)(F)F)cc(C(F)(F)F)c2)n1)NNc1cnccn1 + Cc1ccccc1N=Nc1ccc(NC(=O)c2ccnn2C)c(C)c1"
readout = "viability, T/C"
result_value = 49.8

[[record]]
compound = "CCc1c2c(nc3ccc(O)cc13)-c1cc3c(c(=O)n1C2)COC(=O)[C@]3(O)CC + Cc1ccccc1N=Nc1ccc(NC(=O)c2ccnn2C)c(C)c1"
readout = "viability, T/C"
result_value = 43.6

